# Target Entity: UniProtKB P30518
# Sequence (P30518 whole entry, looked up): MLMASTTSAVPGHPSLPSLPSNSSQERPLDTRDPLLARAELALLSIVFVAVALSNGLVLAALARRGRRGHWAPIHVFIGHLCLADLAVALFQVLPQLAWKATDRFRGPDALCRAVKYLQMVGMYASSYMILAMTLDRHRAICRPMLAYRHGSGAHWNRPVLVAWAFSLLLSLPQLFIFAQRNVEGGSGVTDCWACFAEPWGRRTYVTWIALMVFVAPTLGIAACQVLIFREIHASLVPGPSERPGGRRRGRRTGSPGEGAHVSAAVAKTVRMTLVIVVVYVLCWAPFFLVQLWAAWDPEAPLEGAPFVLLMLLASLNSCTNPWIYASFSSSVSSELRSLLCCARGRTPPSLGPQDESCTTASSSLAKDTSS
# Assay Protocol: blockade of AVPR2 arrestin recruitment – imaging, beta-arrestin-GFP, U2OS, antagonist mode, selectivity assay for GPR35 antagonist project, SAR follow-up (AID 463202)
# Condition Details: U2OS AVPR2 beta-arrestin-GFP translocation imaging; at 10 µM; stronger effect = higher value
Recorded Metric: inhibition (%)
Numbers only, in %.

# annotated cases, reported inhibition shown
Smiles Structure: CCOc1ccc(NC(=O)CSc2nc3ccsc3c(=O)n2Cc2ccc(C(=O)O)cc2)cc1
inhibition / %: 15.5

Smiles Structure: O=C(CCCN1C(=O)S/C(=C/c2ccccc2)C1=S)Nc1ccc(C(=O)O)cc1
inhibition / %: 0.7

Smiles Structure: Cc1nc(N2CCC(C)CC2)c2c(C)c(C(=O)Nc3ccc4c(c3)OCCO4)sc2n1
inhibition / %: -5.7

Smiles Structure: COc1ccc(/C=C2\SC(=S)N(CCCC(=O)Nc3ccc(O)cc3)C2=O)cc1
inhibition / %: 25.3

Smiles Structure: Cc1ccc(/C=C2\SC(=S)N(CCCC(=O)Nc3cccc(C(=O)O)c3)C2=O)cc1
inhibition / %: 8.2

For each entry beneath this line, provide reported inhibition.
1. COc1ccc(/C=C2\SC(=S)N(CCCC(=O)Nc3ccc(C(=O)O)c(O)c3)C2=O)cc1OC
2. CC(/C=C1\SC(=S)N(CCCC(=O)Nc2ccc(C(=O)O)c(O)c2)C1=O)=C\c1ccccc1
3. O=C(Nc1ccc2nc(SCc3ccccc3)sc2c1)c1ccccc1C(=O)N1CCOCC1

**A:**
22.9
30
3.3

State the recorded inhibition for every item in the following list.
1. Clc1ccc(Cn2ncc3c(N4CCN(c5ccccc5)CC4)ncnc32)cc1
2. O=C(CCCN1C(=O)/C(=C/c2ccc3c(c2)OCO3)SC1=S)Nc1ccc(C(=O)O)cc1

**A:**
1: 3.4; 2: -6.5

Sure, the documented inhibition for `O=C(Nc1ccc2nc(SCc3ccc(Cl)cc3)sc2c1)c1ccccc1C(=O)N1CCOCC1` is -0.8
